# MEASURED ON: T1, human amylin 3(a) receptor (human calcitonin receptor co-expressed with RAMP-3) on BHK570/CRE-luc cells (human, UniProt P30988 25-474; O60896 24-148)
# T1 sequence (looked up) 1: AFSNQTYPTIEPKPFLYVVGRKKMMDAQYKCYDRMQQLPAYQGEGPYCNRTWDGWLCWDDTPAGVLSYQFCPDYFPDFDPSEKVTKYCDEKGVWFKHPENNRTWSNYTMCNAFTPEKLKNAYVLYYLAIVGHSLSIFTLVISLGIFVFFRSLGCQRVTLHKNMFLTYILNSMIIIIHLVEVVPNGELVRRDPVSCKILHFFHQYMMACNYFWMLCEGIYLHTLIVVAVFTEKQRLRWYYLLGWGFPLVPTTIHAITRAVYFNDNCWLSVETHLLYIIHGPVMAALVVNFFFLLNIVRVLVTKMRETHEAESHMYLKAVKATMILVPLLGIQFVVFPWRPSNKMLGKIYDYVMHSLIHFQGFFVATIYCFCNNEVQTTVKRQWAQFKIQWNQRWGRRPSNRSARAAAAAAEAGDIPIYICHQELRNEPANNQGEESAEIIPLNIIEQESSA
# T1 sequence (looked up) 2: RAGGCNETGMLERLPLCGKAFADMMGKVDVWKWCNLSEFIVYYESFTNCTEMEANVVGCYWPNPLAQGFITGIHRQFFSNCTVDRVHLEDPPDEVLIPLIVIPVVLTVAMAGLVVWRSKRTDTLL
# METHOD SUMMARY: cell-based or functional assay
Numbered stars: 1 amine (or outer) side, 2 acyl side, 3 side chain; on linkers, the order of the positions; unused ones are H or OH. * marks the point of attachment. C20 diacid = O=C(O)CCCCCCCCCCCCCCCCCCC(=O)*; C18 diacid = O=C(O)CCCCCCCCCCCCCCCCC(=O)*; γGlu = O=C(O)[C@H](CCC(=O)[*:2])N[*:1]; AEEA = NCCOCCOCC(=O)O
ATTRIBUTE MEASURED: hAmylin-R funct. EC50 (pM), tested with HSA

[A] {C20 diacid-γGlu-AEEA-AEEA-AEEA-AEEA}-ASELSTAALGRLSAELHELATLPRTETGSGSP-NH2 [[N-terminal(C20 diacid-gGlu-4xOEG), des1, 30S, 31G]mimylin]
[B] {C18 diacid}-EASELSTAALGRLSAELHELATLPRTETGSGSP-NH2 [[N-terminal(C18 diacid), 30S, 31G]mimylin]
Could you tell me which of these two has the smaller hAmylin-R funct. EC50 (pM), tested with HSA figure? First: A Second: B Kindly give the label for the entry you pick.
B
(B: 39 pM, A: 62 pM)
